# system.name: Voltage-gated inwardly rectifying potassium channel KCNH2 (Homo sapiens, UniProt Q12809)
# Sequence (Q12809 whole entry): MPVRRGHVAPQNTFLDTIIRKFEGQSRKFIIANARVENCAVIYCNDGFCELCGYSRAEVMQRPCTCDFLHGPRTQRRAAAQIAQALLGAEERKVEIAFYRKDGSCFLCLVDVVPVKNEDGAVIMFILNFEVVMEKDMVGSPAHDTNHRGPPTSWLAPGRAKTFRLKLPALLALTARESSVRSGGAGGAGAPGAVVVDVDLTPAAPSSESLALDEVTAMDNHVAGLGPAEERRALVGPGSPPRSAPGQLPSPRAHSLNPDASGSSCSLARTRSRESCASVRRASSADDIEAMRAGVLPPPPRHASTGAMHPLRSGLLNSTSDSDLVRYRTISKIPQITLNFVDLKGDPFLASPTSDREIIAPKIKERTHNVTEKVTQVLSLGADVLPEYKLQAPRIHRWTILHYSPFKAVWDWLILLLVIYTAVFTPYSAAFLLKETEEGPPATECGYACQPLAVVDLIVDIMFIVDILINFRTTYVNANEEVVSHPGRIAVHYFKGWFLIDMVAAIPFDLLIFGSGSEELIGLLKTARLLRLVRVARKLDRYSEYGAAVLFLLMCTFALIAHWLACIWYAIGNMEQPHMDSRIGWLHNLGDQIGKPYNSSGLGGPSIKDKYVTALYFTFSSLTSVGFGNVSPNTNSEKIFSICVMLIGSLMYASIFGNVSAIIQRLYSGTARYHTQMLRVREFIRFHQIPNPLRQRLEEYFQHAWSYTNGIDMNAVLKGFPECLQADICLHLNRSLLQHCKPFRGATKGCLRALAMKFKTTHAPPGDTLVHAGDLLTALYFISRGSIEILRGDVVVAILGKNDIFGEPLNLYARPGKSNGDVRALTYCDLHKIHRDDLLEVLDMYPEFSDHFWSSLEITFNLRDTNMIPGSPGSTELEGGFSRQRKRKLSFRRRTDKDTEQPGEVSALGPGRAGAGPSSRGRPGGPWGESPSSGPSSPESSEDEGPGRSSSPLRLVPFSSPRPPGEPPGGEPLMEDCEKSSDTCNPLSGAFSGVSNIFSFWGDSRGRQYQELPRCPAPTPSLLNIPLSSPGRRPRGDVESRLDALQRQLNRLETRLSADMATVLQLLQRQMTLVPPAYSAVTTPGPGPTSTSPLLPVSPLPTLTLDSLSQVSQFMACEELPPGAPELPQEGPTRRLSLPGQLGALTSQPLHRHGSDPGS
# assay.method.text: Inhibition of human ERG stably overexpressed in HEK293 cells incubated for 30 mins by FLIPR assay
# Type: toxicity, cell-based
# assay.conditions: human, hek293, 0.5 h; time 30 min
recorded.endpoint: IC25

## Input State the recorded IC25 for this entry: CSc1ccc(NC(=O)c2ncc([N+](=O)[O-])[nH]2)cc1
## Output > 12.5 µM

## Input // repeat for CSc1ccc(C(=O)Nc2ccc3c(c2)B(O)OC3(C)C)cc1 and report
## Output > 6.2 µM

## Input // repeat for Cn1c([N+](=O)[O-])cnc1C(=O)Nc1ccc(F)cc1C(F)(F)F and report
## Output > 6.2 µM

## Input // repeat for COc1ccc(Cn2ccn3cc([N+](=O)[O-])nc3c2=O)cc1 and report
## Output > 2 µM

## Input // repeat for CSc1ccc(OC[C@@H]2Cn3cc([N+](=O)[O-])nc3O2)cc1 and report
## Output > 6.2 µM

---

# Test system: Leishmania braziliensis
# assay.method.text: Antileishmanial activity against wild type Leishmania braziliensis UA847 promastigotes […] assessed as inhibition of parasite growth incubated for 72 hrs by automatic microtiter plate reader analysis
# Format: functional, organism-based
recorded.endpoint: IC50

## Input State the recorded IC50 for this entry: C[S+]([O-])c1ccc(C(=O)Nc2ccc3c(c2)B(O)OC3(C)C)cc1 (stereo unspecified)
## Output > 20 µM

## Input // repeat for CSc1ccc(OCc2nccn2C)cc1 and report
## Output > 20 µM

## Input // repeat for Cn1c([N+](=O)[O-])cnc1CCc1ccc(S(C)(=N)=O)cc1 (stereo unspecified) and report
## Output > 20 µM

## Input // repeat for CSc1ccc(NC(=O)c2ncc([N+](=O)[O-])n2C)cc1 and report
## Output > 20 µM

## Input // repeat for CSc1ccc(NC(=O)c2ncc([N+](=O)[O-])[nH]2)cc1 and report
## Output > 20 µM

## Input // repeat for CSc1ccc(NCc2ncc([N+](=O)[O-])n2C)cc1 and report
## Output > 20 µM

## Input // repeat for COc1ccc(Cn2ccn3cc([N+](=O)[O-])nc3c2=O)cc1 and report
## Output > 20 µM

## Input // repeat for CSc1ccc(OC[C@@H]2Cn3cc([N+](=O)[O-])nc3O2)cc1 and report
## Output 1.4 µM

## Input // repeat for CSc1ccc(CCc2ncc([N+](=O)[O-])n2CCO)cc1 and report
## Output > 20 µM

## Input // repeat for CCCCCCCCCCCCCCCCOP(=O)([O-])OCC[N+](C)(C)C [MILTEFOSINE] and report
## Output 17.8 µM

## Input // repeat for CSc1ccc(OCC2Cn3cc([N+](=O)[O-])nc3O2)cc1 (racemic) and report
## Output 1.5 µM

---

# assay.method.text: Cytotoxicity against mouse peritoneal macrophage assessed as inhibition of cell growth incubated for 72 hrs by giemsa staining based analysis
# Assay type: toxicity
# assay.conditions: peritoneal macrophages
I'd be grateful if you could share measured IC50 at 72 h for these entries.

## Input State the recorded IC50 at 72 h for this entry: CSc1ccc(OCC2Cn3cc([N+](=O)[O-])nc3O2)cc1 (racemic)
## Output > 100 µM

## Input // repeat for CSc1ccc(OCc2ncc([N+](=O)[O-])n2C)cc1 and report
## Output > 82 µM

## Input // repeat for Cn1c([N+](=O)[O-])cnc1C(=O)Nc1ccc(F)cc1C(F)(F)F and report
## Output > 100 µM

## Input // repeat for CCCCCCCCCCCCCCCCOP(=O)([O-])OCC[N+](C)(C)C and report
## Output > 40 µM

## Input // repeat for CSc1ccc(OC[C@H]2Cn3cc([N+](=O)[O-])nc3O2)cc1 and report
## Output > 86 µM
